Can you tell me IC50 for the items I'm about to list?
Tested on: K562 (human leukemia cells)
EXPERIMENT DESCRIPTION: Inhibition of proliferation of tumor cell lines (MTT), K562
Type: cell-based
EXPERIMENTAL SETUP: Homo sapiens, K562, 72 h, read-out: IC50 value of compound for inhibition of proliferation of tumor cell lines, K562
Numbers only, in µg/mL.

Worked set:
C/C=C(/C)C(=O)O[C@H]1C(C)=C[C@]23C(=O)[C@@H](C=C(CO)[C@@H](O)[C@]12O)[C@@H]1C(C)(C)[C@]1(OC(=O)CCCCCCCCCCC)C[C@H]3C [Compound 9, 3-O-angeloyl-13-O-dodecanoyl-ingenol] :: 1.87
CCCCCCCCCCCC(=O)O[C@@]12C[C@@H](C)[C@]34C=C(C)[C@H](O)[C@@]3(O)[C@H](O)C(C)=C[C@H](C4=O)[C@@H]1C2(C)C [Compound 1d, 20-deoxy-13-O-dodecanoyl-ingenol] :: 6.88
CC1=C[C@]23C(=O)[C@@H](C4OC4(C)[C@@H](O)[C@]2(O)[C@H]1O)[C@H]1C(C[C@H]3C)C1(C)C (stereo partly drawn) [Compound 1e, 6,7-epoxy-20-deoxy-ingenol] :: 5.52
CCCCCCCCCCCC(=O)O[C@@]12C[C@@H](C)[C@]34C=C(C)[C@H](OC(=O)C(C)C(C)C)[C@@]3(O)[C@H](O)C(CO)=C[C@H](C4=O)[C@@H]1C2(C)C (stereo partly drawn) :: 0.12
CCCCCCCCCCCC(=O)O[C@@]12C[C@@H](C)[C@]34C=C(C)[C@H](OC(C)=O)[C@@]3(O)[C@H](O)C(CO)=C[C@H](C4=O)[C@@H]1C2(C)C [Compound 10, 3-O-acetyl-13-O-dodecanoyl-ingenol] :: 0.22
CCCCCCCCCCCC(=O)O[C@@]12C[C@@H](C)[C@]34C=C(C)[C@H](OC(=O)CCC)[C@@]3(O)[C@H](O)C(CO)=C[C@H](C4=O)[C@@H]1C2(C)C [Compound 11, 3-O-n-butanoyl-13-O-dodecanoyl-ingenol] :: 0.1

Consider the following items and state reported IC50 for each.
1. C/C=C(/C)C(=O)O[C@H]1C(C)=C[C@]23C(=O)[C@@H](C=C(CO)[C@@H](O)[C@]12O)[C@@H]1C(C)(C)[C@]1(OC(=O)CCCCC)C[C@H]3C [Compound 17, 3-O-angeloyl-13-O-hexanoyl-ingenol]
2. CCCCCCCCCCCC(=O)O[C@@]12C[C@@H](C)[C@]34C=C(C)[C@H](O)[C@@]3(O)[C@H](O)C(COC(=O)CCC)=C[C@H](C4=O)[C@@H]1C2(C)C [Compound 13, 20-O-n-butanoyl-13-O-dodecanoyl-ingenol]

1: 2.93; 2: 0.07
